Below, each entry is listed alongside its reported PH 0.5 h.
# procedureDetails: Solubility in water and bio-relevant media at 37° C. (HPLC of filtrate, pH of filtrate, XRPD of filter cake)
# Format: physicochemical
# conditionContext: pH of the filtrate, FeSSIF, 0.5 h
readout: PH 0.5 h

>>> print(df.to_string())
                                   compound  readoutvalue
0  Cc1nn(-c2cc(Cl)c(Oc3cc(C(C)C)c(=O)[nH]n3)c(Cl)c2)c(=O)[n-]c1=O.[K+] [Potassium salt Form 2]          5.09
1  Cc1nn(-c2cc(Cl)c(Oc3cc(C(C)C)c(=O)[nH]n3)c(Cl)c2)c(=O)[n-]c1=O.[K+] [Potassium salt Form 1]          5.06
2  Cc1nn(-c2cc(Cl)c(Oc3cc(C(C)C)c(=O)[nH]n3)c(Cl)c2)c(=O)[n-]c1=O.[Na+] [Sodium salt Form A]          5.09
3  Cc1nn(-c2cc(Cl)c(Oc3cc(C(C)C)c(=O)[nH]n3)c(Cl)c2)c(=O)[nH]c1=O [Free acid Form I]          4.91
